Please go through the items and note down their MIC values for oils and their components.
System: Malassezia furfur CBS 7019
Assay: MIC of oils and their components, microtitre plate assay
Format: cell-based
Details: substance alone
Give bare numbers, in %.

Here is how some molecules turned out for MIC values for oils and their components.
> print(dat)
                                   molecule  reported.value
1    C=CCc1ccc(O)c(OC)c1 [Eugenol, eugenol]            0.01
2  CC1=CCC(C(C)(C)O)CC1 (stereo not drawn) [α-terpineol, alpha-terpineol]            0.02
3           CC12CCC(CC1)C(C)(C)O2 [Cineole]               1
4  CC1=CCC2CC1C2(C)C (stereo not drawn) [α-pinene]             0.3
5         C=CCc1ccc(OC)cc1 [4-allylanisole]            0.25

Proceeding to the next molecule to report its MIC values for oils and their components.
Request: # get_value(readout= MIC values for oils and their components, system= Malassezia furfur CBS 7019) for C=CC(C)(O)CCC=C(C)C (centres unmarked) [Linalool, linalool]
Response: 0.01

###

Tested on: Malassezia furfur CBS 7019
Assay: Microtitre plate cross-assay, Fractional Inhibitory Concentration (FIC) with conventional anti-dandruff/anti-fungal agents
Format: cell-based
Conditions: combination with zinc pyrithione (ZnPTO); M. furfur CBS 7019; triplicate
Method: FIC values are for activity against M.furfur, such as CBS 7019, and are calculated in ways well-known in the art. Studies into anti-microbial action were performed using a microtitre plate cross-assay in triplicate against the type strain Malassezia furfur CBS 7019. […]
readout.type: FIC values with zinc pyrithione (ZnPTO)

Batch lookup, FIC values with zinc pyrithione (ZnPTO) per entry.
1. C=C(C)[C@H]1CC=C(C)CC1
2. C=CCc1ccc(OC)cc1
3. CC1=CCC2CC1C2(C)C (stereo not shown)
4. C=CC(C)(O)CCC=C(C)C (stereo not shown)
5. C=CCc1ccc(O)c(OC)c1
6. CC1=CCC(C(C)(C)O)CC1 (stereo not shown)
7. CC1=CCC(O)(C(C)C)CC1 (stereo not shown)

Response:
1.5
0.725
1.42
0.625
0.625
2
0.83

###

Tested on: Malassezia furfur CBS 7019
Experiment: Microtitre plate cross-assay, Fractional Inhibitory Concentration (FIC) with conventional anti-dandruff/anti-fungal agents
Assay type: cell-based
Conditions: combination with climbazole; M. furfur CBS 7019
readout.type: FIC interpretation with climbazole

> print(dat)
                                  compound              assayed.system        reported.value
1                      C=CCc1ccc(O)c(OC)c1  Malassezia furfur CBS 7019  synergy (<1 synergy)
2  CC1=CCC(C(C)(C)O)CC1 (centres unmarked)  Malassezia furfur CBS 7019  synergy (<1 synergy)

Origin of measurements: patent US20060013796A1
